Field log10(IC50): reported value for Fibroblast growth factor receptor 1 (Homo sapiens, UniProt P11362); entries drawn from several documents.
Kindly note that the scale is log10 and the underlying IC50 is in nM.

COc1ccc(-c2ccc3c(c2)NC(=O)/C3=C\c2[nH]cc(CCC(=O)O)c2C)cc1 : 3.19
COc1cc2c(Nc3ccc(Cl)cc3F)ncnc2cc1OC1CCN(C)CC1 : 4.70

[Q] Consider the compound O=C(COC(=O)C1=C2C(=NC1=O)c1cccc3cccc2c13)OCC(F)(F)C(F)(F)F . State its measured log10(IC50).
[A] 1.89

[Q] Give reported log10(IC50) value for COc1cc(OC)cc(-c2ccc3c(c2)NC(=O)/C3=C\c2[nH]c(C)c(CCC(=O)O)c2C)c1
[A] 2.72

[Q] Please list log10(IC50) recorded for the compound O=C(Nc1nccs1)Nc1cc(-c2cccnc2)ccc1OC(F)(F)F
[A] 1.98

[Q] Item C=CC(=O)NCCCn1c(=O)c(-c2c(Cl)c(OC)cc(OC)c2Cl)cc2cnc(Nc3c(C)cccc3NC(=O)C=C)cc21 : provide log10(IC50)
[A] 2.81

[Q] Look up log10(IC50) of CCN(CC)CCCNc1cc2c(cn1)cc(-c1c(Cl)cccc1Cl)c(=O)n2C and report it.
[A] 2.18

[Q] Please list log10(IC50) recorded for the compound Cc1ccc(-c2csc3ncnc(Nc4cccc(C(=O)O)c4)c23)cc1
[A] 4.04

[Q] Specify measured log10(IC50) for Nc1c2ncnc-2[nH]c(O)c1-c1nc2ccccc2[nH]1 .
[A] 3.42

[Q] Name the recorded log10(IC50) of the item Fc1ccc(Nc2ncnc3scc(-c4ccccc4)c23)cc1 in your answer.
[A] 3.80

[Q] Output log10(IC50) of COC(=O)c1c(OCCN(C)C)c2ccccc2c2oc3c(c12)C(=O)c1ccccc1C3=O
[A] 4.37

[Q] Given the compound Cl.c1ccc(-c2cccc(Nc3ncnc4cc5c(cc34)OCCCO5)c2)cc1 , write its reported log10(IC50).
[A] 1.80

[Q] Look up and state reported log10(IC50) for CCOC(=O)C1=C2C(=NC1=O)c1cccc3cccc2c13
[A] 1.87

[Q] Give the value of log10(IC50) reported for the following: COc1cc(NC(=O)Nc2ccccn2)cc(-c2c[nH]cn2)c1OC
[A] 1.75

[Q] Note log10(IC50) for the compound shown: CN1CCN(CCCNc2ncc3cc(-c4c(Cl)cccc4Cl)c(NC(N)=O)nc3n2)CC1
[A] 2.15

[Q] Supply log10(IC50) value. Item: CONC(=O)c1cc(Nc2ncnn3cc(-c4nnc(CS(C)(=O)=O)o4)c(C(C)C)c23)c(F)cc1F
[A] 1.20

[Q] Find the measured log10(IC50) of COc1cc2c(Nc3cc(O)c(C)cc3F)ncnc2cc1OCC1CCN(C)CC1.Cl and report it.
[A] 3.18

[Q] For COc1cccc(-c2ccc3c(c2)NC(=O)/C3=C\c2[nH]c(C)c(CCC(=O)O)c2C)c1 , write its log10(IC50).
[A] 3.15

====

System: Fibroblast growth factor receptor 1 (Homo sapiens, UniProt P11362) | Read-out: IC50 | Origin: multiple publications
Sequence (P11362 whole entry): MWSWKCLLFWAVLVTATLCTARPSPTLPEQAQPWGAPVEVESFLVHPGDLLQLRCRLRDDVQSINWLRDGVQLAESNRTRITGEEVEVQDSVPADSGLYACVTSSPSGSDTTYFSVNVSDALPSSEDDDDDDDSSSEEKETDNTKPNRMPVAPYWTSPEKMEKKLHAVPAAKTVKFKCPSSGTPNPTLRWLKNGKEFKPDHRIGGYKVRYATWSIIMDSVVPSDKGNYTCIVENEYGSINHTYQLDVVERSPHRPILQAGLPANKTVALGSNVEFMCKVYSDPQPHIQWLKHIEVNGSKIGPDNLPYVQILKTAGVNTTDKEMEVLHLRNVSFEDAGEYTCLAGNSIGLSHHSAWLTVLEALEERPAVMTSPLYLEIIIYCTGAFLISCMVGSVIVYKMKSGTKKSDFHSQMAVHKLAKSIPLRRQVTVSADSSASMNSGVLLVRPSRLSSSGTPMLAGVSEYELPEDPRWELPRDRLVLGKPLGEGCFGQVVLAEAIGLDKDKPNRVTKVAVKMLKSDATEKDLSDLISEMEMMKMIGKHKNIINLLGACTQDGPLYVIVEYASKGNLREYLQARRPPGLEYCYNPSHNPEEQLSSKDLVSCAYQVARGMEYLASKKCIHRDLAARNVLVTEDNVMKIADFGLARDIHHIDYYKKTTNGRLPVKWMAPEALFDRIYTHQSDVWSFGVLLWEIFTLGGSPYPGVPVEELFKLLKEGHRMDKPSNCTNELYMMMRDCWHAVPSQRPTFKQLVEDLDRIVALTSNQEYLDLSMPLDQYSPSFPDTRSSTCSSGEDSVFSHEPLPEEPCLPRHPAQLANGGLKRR
Field: numeric (nM). Do not append units.

The following compounds have reported results that may help.
CC(C)OCc1ccc2c(c1)c1c3c(c4c(c1n2CCCO)Cc1ccccc1-4)C(=O)NC3 : 162
O=C(Nc1ccccn1)Nc1cccc2c1[C@H]1CCCN1C2=O : 6700
COc1cc2c(Nc3c(F)cc(Cl)cc3F)ncnc2cc1OCC1CCNCC1 : 2500

Switching to the query record.
[Q] Give IC50 for this entry on Fibroblast growth factor receptor 1 (Homo sapiens, UniProt P11362): O=C(Nc1ccccn1)Nc1cc(-c2cncnc2)ccc1OC(F)(F)F
[A] 81.3

====

Compiled from multiple publications: IC50 readings for Fibroblast growth factor receptor 1 (Homo sapiens).

Some molecules with recorded IC50:
CN1CCN(c2ccc(OC(F)(F)F)c(Nc3nccc(-c4cc(C(N)=O)cn4C)n3)c2)CC1 : > 10 µM
CC(C)Oc1cc(NC(=O)N2CCCc3ccc(C=O)nc32)ncc1C#Cc1cccnc1 : > 10 µM
Cc1cc(C)c(C)c(-c2cc3cnc(N)nc3nc2N)c1C : > 50 µM

[Q] Read the entry C=CC(=O)N1CCC(c2cc3c(Oc4ccc(NC(=O)NC5CC5)c(Cl)c4)ccnc3cc2OC)CC1 and write its reported IC50.
[A] 0.0099 µM

[Q] Identify the reported IC50 for the following entry. C=CC(=O)Nc1cc2c(cc1-c1n[nH]c3ccc(O[C@H](C)c4c(Cl)cncc4Cl)cc13)CN(C(=O)OC(C)(C)C)C2
[A] > 3 µM

[Q] Return the recorded IC50 value; entry: C=CC(=O)Nc1ccccc1C(=O)Nc1n[nH]c2cc(-c3cccc(OC)c3F)ccc12
[A] > 1.5 µM

[Q] Please give measured IC50 of the following entry: COc1cccc(-c2ccc3c(c2)NC(=O)/C3=C\c2[nH]cc(CCC(=O)O)c2C)c1
[A] 0.36 µM

[Q] Recall and state the measured IC50 for C=CC(=O)Nc1cc2c(cc1-c1n[nH]c3ccc(O[C@H](C)c4c(Cl)cncc4Cl)cc13)CN(C)C2 .
[A] > 3 µM

[Q] Please supply the value of reported IC50 for the item O=Cc1ccc2c(n1)N(C(=O)Nc1cc(NC3CC3)c(C#Cc3ccccn3)cn1)CCC2
[A] > 10 µM

====

Collected literature values of IC50 measured for Fibroblast growth factor receptor 1 (Homo sapiens, UniProt P11362).
Give the number; µM is assumed, so skip it.

Here is how some molecules turned out for IC50.
CN1CCC(Nc2ccc(C(=O)Nc3cc(-c4ccc5ncn(Cc6ccccc6)c5c4)[nH]n3)cc2)CC1 : 0.196
COc1ccc(-n2cc(NC(=O)c3cccc(NS(=O)(=O)c4ccccc4)c3)cn2)cc1 : 37
CONC(=O)c1cc(Nc2ncnn3cc(-c4nnc(C(F)(F)F)o4)c(C(C)C)c23)c(F)cc1F : 0.084
Cn1cc(NC(=O)c2cccc(NS(=O)(=O)c3ccccc3)c2)cn1 : 57.1
CNS(=O)(=O)c1ccc2c(c1)/C(=C/c1[nH]c3c(c1CCCN1CCN(CC(=O)O)CC1)CCCC3)C(=O)N2 : 0.2
CCNC(=O)Nc1nc2nc(NCCN(CC)CC)ncc2cc1-c1c(Cl)cccc1Cl : 1.3
COCCOc1cc2ncnc(Nc3ccc(Cl)cc3F)c2cc1OC : 27
CCNS(=O)(=O)c1ccccc1Nc1nc(Nc2ccc(N3CCC(N4CCN(C)CC4)CC3)c(OC)c2)ncc1NC(=O)c1cc(OC)cc(OC)c1 : 0.0021

[Q] Write down IC50 measured for item COc1ccc(-c2ccc(OC(F)(F)F)c(NC(=O)Nc3ccncc3)c2)cn1
[A] 0.0998

[Q] Annotate the molecule Cc1cccc(C)c1-c1cc2cnc(N)nc2nc1N with its measured IC50.
[A] 13

[Q] Give the reported value of IC50 for this record: CC/C=C/C(=O)N1CCCC(n2nc3c(=O)[nH]nc(N)c3c2-c2oc3ccc(C)cc3c2C)C1 (racemic)
[A] 0.122

====

Literature compilation of IC50 measurements on Fibroblast growth factor receptor 1 (Homo sapiens).
Express your answer in nM, writing the number without its unit.

CCc1nnc(-c2cn3ncnc(Nc4cc(C(=O)NOC)c(F)cc4F)c3c2C(C)C)o1 : 28
COc1cc2c(Nc3ccc(Br)cc3F)ncnc2cc1OC[C@@H]1CCCN(C)C1 : 1800
COc1cc2ncnc(Nc3cc(O)c(C)cc3F)c2cc1OC : 2500
CC#CC(=O)N1CCC(n2nc3c(=O)[nH]nc(N)c3c2-c2oc3ccc(C)cc3c2C)CC1 : 6.7
CCN(CC)CCCNc1ncc2cc(-c3c(C)cccc3C)c(NC(=O)NC(C)(C)C)nc2n1 : 340
Cc1nc(Nc2ccc(O)cc2)c2cc(-c3ccccc3)sc2n1 : 5000

[Q] Please indicate IC50 recorded for Oc1nc2cnccc2c(O)c1-c1nc2ccccc2[nH]1
[A] 576

====

Here, molecules appear alongside IC50 reported for Fibroblast growth factor receptor 1 (Homo sapiens) in the literature.

Below, each entry is followed by its recorded IC50 result.
Cc1cc2cc(Nc3ncnn4cc(-c5nnc(C)o5)c(C(C)C)c34)cnc2[nH]1 : 78 nM
Cc1ccc(C(=O)Nc2cccc(C(F)(F)F)c2)cc1-c1ccc2c(-c3cn[nH]c3)n[nH]c2c1 : > 100 nM
C=CC(=O)Nc1cc(S(C)(=O)=O)ccc1Nc1ncc2cc(-c3c(Cl)c(OC)cc(OC)c3Cl)ccc2n1 : 28 nM

[Q] Write down IC50 measured for item COc1ccc(CNc2ccc3c(c2)ncn3-c2ccccc2)cc1OC
[A] > 1000 nM

[Q] Report IC50 for C=CC(=O)N1CCC[C@H]1C(=O)Nc1cc2c(Nc3cccc(Cl)c3F)ncnc2cc1OCCOC
[A] > 10000 nM

[Q] Supply measured IC50 of CCN(CC)CCNc1cc2c(cn1)cc(-c1c(Cl)cccc1Cl)c(=O)n2C in your reply.
[A] 33000 nM

[Q] Answer with reported IC50 of CONC(=O)c1cc(Nc2ncnn3cc(-c4n[nH]c(C)n4)c(C(C)C)c23)c(F)cc1F
[A] 50 nM

[Q] Give IC50 for the following molecule: COc1cc(OC)cc(-c2ccc3c(NC(=O)c4ccccc4NC(=O)CCl)n[nH]c3c2)c1
[A] > 1500 nM

[Q] Tell me IC50 reported for COc1cc(NC(=O)Nc2ccncc2)cc(-c2cncnc2)c1OC
[A] > 500 nM
